# System: HepG2
# assay protocol: cell viability relative to DMSO; higher = less toxic
# settings: 72 h; 100 nM
// reported cell viability for each item listed
Write the numeric value and follow it with the unit.

Record excerpt, results attached:
Ask: Can you look up the measured cell viability of `CCOc1cc(C=O)ccc1O` for me?
Result: 96.2%

Ask: Can you look up the measured cell viability of `CN(C)CCc1c[nH]c2ccc(C[C@H]3COC(=O)N3)cc12` for me?
Result: 99%

Ask: Using the record for `COC(=O)Nc1nc2cc(Sc3ccccc3)ccc2[nH]1` , report its cell viability.
Result: 93.3%

Ask: Fill in: cell viability of `CCCCOc1ccc(-c2cncc(C(=O)NCc3cccnc3N3CCOCC3)c2)cc1Cl` is ___
Result: 113%

Next:
Ask: Bench note: what cell viability did `CC(=O)OCC1=C(C(=O)O)N2C(=O)[C@@H](NC(=O)CS/C(=N/C(C)C)NC(C)C)[C@H]2SC1` show?
Result: 96.8%

Ask: // lookup cell viability for `COc1ccc(/C=C\c2cc(OC)c(OC)c(OC)c2)cc1O`
Result: 45.2%

---

Listed here: items and their measured cell viability.
# Tested on: U2OS
# assay protocol: cell viability relative to DMSO; higher = less toxic
# settings: 72 h; 10000 nM
Please state the figure in %; there is no need to write the unit.

Ask: Data request, read-out cell viability, for C[C@]12CC[C@@H](O)C[C@@H]1CC[C@@H]1[C@@H]2CC[C@]2(C)C(c3ccccc3)=CC[C@@H]12 [17-PA]
Result: 102

Ask: So what does the record say about cell viability for Cc1nc(-c2cn3c(n2)-c2ccc(-c4cnn(C(C)(C)C(N)=O)c4)cc2OCC3)n(C(C)C)n1 [taselisib] ?
Result: 57.2

Ask: Fill in: cell viability of c1ccc(CN(CC2=NCCN2)c2ccccc2)cc1 [antazoline] is ___
Result: 90.6

Let us move to another entry and its cell viability.
Ask: State the recorded cell viability for this entry: C[C@H](NC(=O)/C(C#N)=C/c1cccc(Br)n1)c1ccccc1 [WP1066]
Result: 0.7

---

# Tested on: Vero E6
# assay protocol: cell viability relative to DMSO; higher = less toxic
# settings: 72 h; 1000 nM
Structures can show the parent of a compound that is named as a salt.
Reported cell viability by item:
Return type: number; implicit unit %.

Ask: GET /values?readout=cell viability&item= CCOC(=O)c1cnc2c(cnn2CC)c1NN=C(C)C [etazolate]
Result: 98.9

Ask: GET /values?readout=cell viability&item= `C[C@@H]1CN([C@H]2CC[C@](C#N)(c3ccc(F)cc3)CC2)CC[C@]1(C(=O)O)c1ccccc1`
Result: 104

***
Ask: Value lookup for cell viability; key = `CCNC(=O)[C@@H]1CCCN1C(=O)[C@H](CCCNC(=N)N)NC(=O)[C@H](CC(C)C)NC(=O)[C@@H](C)NC(=O)[C@H](Cc1ccc(O)cc1)NC(=O)[C@H](CO)NC(=O)[C@H](Cc1c[nH]c2ccccc12)NC(=O)[C@H](Cc1cnc[nH]1)NC(=O)[C@@H]1CCC(=O)N1`
Result: 96.9

Ask: Reported cell viability, compound `O=c1n(CCCN2CCN(c3cccc(Cl)c3)CC2)nc2ccccn12` : ____
Result: 103

Ask: // returns reported cell viability for input `CCCCN1CCC(CNC(=O)c2c3n(c4ccccc24)CCCO3)CC1`
Result: 91.4

Ask: cell viability lookup needed for `CC(C)(C)c1ccc(S(=O)(=O)NCc2ccc(C(=O)Nc3cccnc3)cc2)cc1` , thanks.
Result: 101

Ask: Recorded cell viability of `CC(C)[C@H](N)C(=O)OCCOCn1cnc2c(=O)nc(N)[nH]c21` , please.
Result: 86.1

Ask: Request the reported cell viability associated with `CN(C(=O)Cc1ccccc1)[C@H](CN1CCCC1)c1ccccc1`
Result: 106

Ask: Request the reported cell viability associated with `N[C@H](C(=O)O)c1cc(O)no1`
Result: 99.4

Ask: Can you share its cell viability? I mean this compound: `N[C@@H](CSS(=O)(=O)O)C(=O)O`
Result: 97.5

Ask: Look up cell viability: COc1cc2c(c(OC)c1OC)-c1c(cc3c(c1OC)OCO3)CC(C)C(C)C2 (centres undefined)
Result: 96.1

Ask: Given `CC(C)OC(=O)OCOP(=O)(CO[C@H](C)Cn1cnc2c(N)ncnc21)OCOC(=O)OC(C)C` , state its recorded cell viability.
Result: 94.3

Ask: What value of measured cell viability is listed for `CN1C(C(=O)Nc2ccccn2)=C(O)c2sccc2S1(=O)=O` ?
Result: 98.7

Ask: Which cell viability is listed for `O=C(/C=C/c1ccc(O)c2c1[C@H](C(=O)O[C@H](Cc1ccc(O)c(O)c1)C(=O)O)[C@@H](c1ccc(O)c(O)c1)O2)O[C@H](Cc1ccc(O)c(O)c1)C(=O)O` ?
Result: 91.6

Ask: Give the measured cell viability of CNCCc1cnc[nH]1 [N-alpha-methylhistamine-dihydrochloride] .
Result: 91.5

Ask: Report cell viability for `CC1(C)[C@@H](O)CC[C@]2(C)[C@H]3C(=O)C=C4[C@@H]5C[C@@](C)(C(=O)O)CC[C@]5(C)CC[C@@]4(C)[C@]3(C)CC[C@@H]12` please.
Result: 103

Ask: Requested read-out: cell viability. Entry: `COc1ccc(S(=O)(=O)N(C(C)=O)c2ccccc2/C=C/c2cc[n+]([O-])cc2)cc1`
Result: 41.8

Ask: Entry c1ccc2c(c1)CCCC2C1=NCCN1 (centres undefined) [tetrahydrozoline] : reported cell viability = ?
Result: 108

Ask: Which cell viability is listed for `CC(=O)OCC1=C(C(=O)O)N2C(=O)[C@@H](NC(=O)CS/C(=N/C(C)C)NC(C)C)[C@H]2SC1` ?
Result: 102

---

# Tested on: Caco-2
# assay protocol: cell viability relative to DMSO; higher = less toxic
# settings: 72 h; 1 nM
readout: cell viability (%)
# value in %; strip the unit string

Example entries begin here.
Ask: Bench note: what cell viability did `O=c1cc(-c2ccccc2)oc2cc(O)c(O)c(O)c12` show?
Result: 96.2

Ask: Item under review: C=CC[N+]1([C@H]2C[C@H]3[C@@H]4CC[C@H]5C[C@H](O)[C@@H](N6CCOCC6)C[C@]5(C)[C@H]4CC[C@]3(C)[C@H]2OC(C)=O)CCCC1 [ROCURONIUM BROMIDE] . Reported cell viability?
Result: 104

Ask: Bench note: what cell viability did `O=C(Nc1cc2cc[nH]c2cn1)c1ccccc1` show?
Result: 102

More entries:
Ask: Endpoint output: cell viability of `CC(C)(CO)[C@@H](O)C(=O)NCCC(=O)O` . Value?
Result: 101

---

# Test system: Calu-3
# assay protocol: cell viability relative to DMSO; higher = less toxic
# settings: 72 h; 10000 nM
readout: cell viability (%)
Field: numeric (%). Do not append units.

Ask: Need cell viability of COc1cc(OC)c(OC)cc1C=O [asaraldehyde] , thanks.
Result: 88.3

Ask: Record request: cell viability value, item `CCN1CCN(c2ccc(C(C)(C)NC(=O)c3cc4[nH]c5ccccc5c(=O)c4cc3F)cn2)CC1`
Result: 43.3

Ask: Requested read-out: cell viability. Entry: `CCc1c(-c2ccccc2)c(-c2ccccc2)nn1-c1ccccc1-c1cccc(OCC(=O)O)c1`
Result: 86.3

Ask: Request the reported cell viability associated with C[C@]1(c2nc3c(C(N)=O)cccc3[nH]2)CCCN1 [veliparib]
Result: 92.1

Ask: // returns reported cell viability for input COc1ccc(C(=O)NCc2ccc(OCCN(C)C)cc2)cc1OC [itopride]
Result: 91.2

---
Ask: Fill in the blank: the reported cell viability of C=C(c1ccc(C(=O)O)cc1)c1cc2c(cc1C)C(C)(C)CCC2(C)C [bexarotene] is ____.
Result: 103

---

# System: Calu-3
# assay protocol: cell viability relative to DMSO; higher = less toxic
# settings: 72 h; 100 nM
readout: cell viability (%)
Value expressed in %; do not type the unit.

Ask: Please report the recorded cell viability for COc1ccc(C2(O)CCC(N3CC[C@@H](NC(=O)CNC(=O)c4cccc(C(F)(F)F)c4)C3)CC2)cn1 (stereo partly specified) .
Result: 96.3

Ask: Consider the molecule `Cc1ccc(/N=C/N(C)/C=N/c2ccc(C)cc2C)c(C)c1` and give its measured cell viability.
Result: 98.1

Ask: Fill blank: measured cell viability of the molecule `C1CCC(NC2CCCCC2)CC1` is ____.
Result: 87.8

Ask: Entry `O=C(NC(=O)c1c(F)cccc1Cl)NC1c2ccccc2-c2ccccc21` : reported cell viability = ?
Result: 108

Ask: Look at this molecule and give its reported cell viability. `Ic1cc(-c2ccccc2)ncn1`
Result: 105

***
Ask: # query: cell viability of entry `CC(C)c1nnc(-c2ccc(-c3ccccc3)nc2)n1-c1cccc2nonc12`
Result: 103
